Test: Induction of NQO1 activity in mouse Hepa-1c1c7 cells at 5 uM after 48 hrs relative to control
Below is a list of entries, each paired with its recorded fold change (FC) value.
Lab note: record just the number, no unit beside it.

molecule: COc1ccc(/C=C2\Oc3ccc(O)cc3C2=O)cc1
fold change (FC): 1

QUERY: What does the data say about its fold change (FC)? Entry: `O=C1Oc2ccc(O)cc2/C1=C/c1ccccc1F`
RESULT: 1.05

QUERY: What does the data say about its fold change (FC)? Entry: `COc1cccc(/C=C2\Oc3ccc(O)cc3C2=O)c1`
RESULT: 1.19

QUERY: What does the data say about its fold change (FC)? Entry: `O=C1/C(=C/c2ccccc2O)Oc2cc(O)ccc21`
RESULT: 1.45

QUERY: What does the data say about its fold change (FC)? Entry: `N#Cc1ccc(/C=C2\Oc3cc(O)cc(O)c3C2=O)cc1`
RESULT: 1.14

QUERY: What does the data say about its fold change (FC)? Entry: `COc1cc(OC)c2c(c1)O/C(=C\c1cnc3ccccc3c1)C2=O`
RESULT: 1.79

QUERY: What does the data say about its fold change (FC)? Entry: `COc1cc(/C=C2\Oc3cc(O)cc(O)c3C2=O)ccc1O`
RESULT: 1.53

----------
Below is a list of entries, each paired with its recorded fold change (FC) value.
Experiment: Induction of NQO1 activity in mouse Hepa-1c1c7 cells at 25 uM after 48 hrs relative to control
Lab note: record just the number, no unit beside it.

Known fold change (FC) results, listed for orientation:
molSmiles: COc1cc(OC)c2c(c1)O/C(=C\c1ccc(N(C)C)cc1)C2=O
obsValue: 0.96
//
molSmiles: O=C1/C(=C/c2cccc(O)c2)Oc2ccc(O)cc21
obsValue: 1.66
//
molSmiles: COc1cc(OC)c2c(c1)O/C(=C\c1cccnc1)C2=O
obsValue: 1.9
//
molSmiles: O=C1/C(=C/c2cccc(Cl)c2)Oc2cc(O)cc(O)c21
obsValue: 1.71
//
molSmiles: COc1cc(OC)c2c(c1)O/C(=C\c1ccc(C)cc1)C2=O
obsValue: 1.34
//
molSmiles: COc1cc(OC)c2c(c1)O/C(=C\c1ccc(O)cc1O)C2=O
obsValue: 1.4
//
molSmiles: COc1cc(/C=C2\Oc3cc(O)cc(O)c3C2=O)ccc1O
obsValue: 2.54
//
molSmiles: COc1ccc(/C=C2\Oc3ccc(O)cc3C2=O)cc1
obsValue: 1.17
//
molSmiles: O=C1/C(=C/c2ccccc2)Oc2cc(O)ccc21
obsValue: 1.85
//
molSmiles: COc1cccc(/C=C2\Oc3cc(O)ccc3C2=O)c1
obsValue: 1.01

QUERY: What does the data say about its fold change (FC)? Entry: `COc1cc(OC)c2c(c1)OC(=O)/C2=C\c1ccccc1O`
RESULT: 1.1

QUERY: What does the data say about its fold change (FC)? Entry: `Cc1ccc(/C=C2\Oc3cc(O)ccc3C2=O)cc1`
RESULT: 0.9

----------
Target: UniProt:P30561
Sequence (P30561 whole entry): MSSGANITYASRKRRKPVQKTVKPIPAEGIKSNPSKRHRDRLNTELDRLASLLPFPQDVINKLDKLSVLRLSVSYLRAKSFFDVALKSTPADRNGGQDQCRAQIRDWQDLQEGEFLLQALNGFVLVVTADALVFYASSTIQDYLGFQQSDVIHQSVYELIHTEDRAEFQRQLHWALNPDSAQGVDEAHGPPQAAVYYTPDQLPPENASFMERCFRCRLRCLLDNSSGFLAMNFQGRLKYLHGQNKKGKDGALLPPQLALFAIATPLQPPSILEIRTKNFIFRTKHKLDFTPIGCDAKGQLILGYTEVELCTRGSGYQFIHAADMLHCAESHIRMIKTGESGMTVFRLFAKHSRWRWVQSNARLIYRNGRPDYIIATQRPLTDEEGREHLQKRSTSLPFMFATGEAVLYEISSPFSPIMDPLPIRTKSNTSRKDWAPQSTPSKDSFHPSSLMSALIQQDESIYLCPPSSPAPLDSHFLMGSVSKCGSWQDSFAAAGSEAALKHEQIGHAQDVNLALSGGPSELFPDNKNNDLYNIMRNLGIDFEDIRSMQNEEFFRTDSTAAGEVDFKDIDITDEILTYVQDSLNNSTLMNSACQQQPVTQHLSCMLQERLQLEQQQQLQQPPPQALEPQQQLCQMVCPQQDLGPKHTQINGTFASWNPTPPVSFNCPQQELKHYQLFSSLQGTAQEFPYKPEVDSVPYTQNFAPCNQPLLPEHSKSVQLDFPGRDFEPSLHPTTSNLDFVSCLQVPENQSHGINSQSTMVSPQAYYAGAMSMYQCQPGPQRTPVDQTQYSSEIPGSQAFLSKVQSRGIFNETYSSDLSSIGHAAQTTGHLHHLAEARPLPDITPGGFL
Test: Induction of Ah receptor in mouse Hepa-1c1c7 cells assessed as induction of CYP1A1 activity at 1 uM after 48 hrs by EROD assay relative to control
Format: cell-based
Conditions: Hepa-1c1c7 cells, probe ethoxyresorufin (EROD), read-out: FC
quantityKind: fold induction at 48 h, 1 µM
Lab note: record just the number, no unit beside it.

QUERY: What does the data say about its fold induction at 48 h, 1 µM? Entry: `COc1cc(OC)c2c(c1)O/C(=C\c1ccccc1OC)C2=O`
RESULT: 1.56
